The origin of these recorded values is ChEMBL document CHEMBL1201862.

System: UO-31
Test: NCI tumour cell line growth inhibition, 48 h
Active and inactive are the calls of the source. No stated cut-off is given here; in the data, active = GI50 up to about 1.1 µM and inactive = higher.
Possible outcomes: active, inactive

Molecule	Classification
COc1cc(/C=C/c2ccc(S(N)(=O)=O)cc2)cc(OC)c1	inactive
COC(C(=O)NCCCCNC(=O)C(OC)c1ccccc1)c1ccccc1 (configuration not stated)	inactive
C/N=c1\ss/c(=N\C(=S)N(C)C)n1C1CCCCC1	inactive
c1ccc(OCc2nnc3n2N=C(c2ccccc2)CS3)cc1	inactive
C=CCNC1=NC(=O)C(CC(=O)Nc2ccc([N+](=O)[O-])cc2[N+](=O)[O-])S1 (configuration not stated)	inactive
C[n+]1ccc(/C2=C3\C=CC(=N3)/C(c3cc[n+](C)cc3)=c3/cc/c([nH]3)=C(\c3cc[n+](C)cc3)C3=N/C(=C(/c4cc[n+](C)cc4)C4C=CC2N4)C=C3)cc1	inactive
CCOC(=O)C1Cc2ccc(C)cc2C1=O (configuration not stated)	inactive
CN1Cc2ccccc2/C=C\c2ccccc21	inactive
CCCCC1=C(C(=O)N2CCOCC2)C2(OCCO2)C1Cl (configuration not stated)	inactive
CC1(C)Cc2c(C#N)c(N)c3c(c2CO1)C(=O)OC3=O	inactive
C=CC(=O)N1C/C(=C\c2ccccc2)C(=O)/C(=C/c2ccccc2)C1	inactive
CCN(CC)CCCNc1nncc2cc3c([nH]c4ccc(OC)cc43)c(C)c12	inactive
N#Cc1c(N)n(-c2nc3ccccc3s2)c(=O)c2cc([N+](=O)[O-])ccc12	inactive
COc1ccc(C=O)cc1OS(=O)(=O)C(F)(F)C(F)(F)C(F)(F)C(F)(F)F	inactive
CCOC(=O)c1cc(C2=CCNC2=O)c(-c2cc(C)no2)[nH]1	inactive
COc1cccc(C2CC(C)(N3CCCC3)Oc3cc4c(cc32)OCO4)c1O (configuration not stated)	inactive
Cc1c2c(n(CC(c3ccccc3)c3ccccc3)c1C)NN=C(C#N)S2(=O)=O	inactive
COC(=O)C(C)(/N=C/c1ccccc1)c1ccccc1 (configuration not stated)	inactive
COc1cc(/C=C2/C(=O)N/C(=N\C(C)=O)N2C)ccc1OC(C)=O	inactive
COc1ccc([C@@]23Oc4cc(OC)cc(OC)c4[C@]2(O)[C@H](O)[C@H](C(N)=O)[C@H]3c2ccccc2)cc1 [DIDESMETHYLROCAGLAMIDE]	active
Cc1cnc2c(c1)C(=O)C1=C(OC(C)(C)CC1O)C2=O (configuration not stated)	inactive
COc1ccc(-c2c(C3=NCCN3)nnn2-c2ccccc2)cc1	inactive
CC(C)(CO)CNc1nc(N)nc(Cl)c1C=O	inactive
CCCCCCC(=O)CC(=O)C(=O)Nc1ccccc1C	inactive
CCOC(=O)c1cnc2sc3ccc4ccccc4c3n2c1=O	inactive
CC(=O)C1C(=O)C(=O)N(c2cccc([N+](=O)[O-])c2)C1=O (configuration not stated)	inactive
CSc1nc(SC)c2c(CO)c(Br)n(Cc3ccccc3)c2n1	inactive
O=C(c1ccccc1)c1ccc(N2C(=O)/C(=C/c3ccccc3S)N=C2c2ccccc2)c(N2C(=O)/C(=C/c3ccccc3S)N=C2c2ccccc2)c1	inactive
C=CC1(C)CC(=O)C2(O)C(C)(O1)C(OC(C)=O)C(O)C1C(C)(C)CCC(O)C12C (configuration not stated)	inactive
CSc1ccc(C2OC(=O)c3ccccc32)c2ccccc12 (configuration not stated)	inactive
COC(=O)CCCCC/C(=C\C(=O)C(Cl)(Cl)Cl)OC	inactive
OCC1C(/C=C/c2ccoc2)ON2CCCC12 (configuration not stated)	inactive
O=C(O)c1ccc(OCc2nc3cc(C(F)(F)F)ccc3nc2-c2ccccc2)cc1	inactive
N#CC(C#N)=Cc1ccc2c(c1)OC(Cl)O2 (configuration not stated)	inactive
CC(=O)c1c(SCCN2CCOCC2)n(-c2ccccc2)c(=S)n(-c2ccccc2)c1=O	inactive
Cn1c(O)c(C(=O)Nc2ccc([N+](=O)[O-])cc2)c(=O)n(C)c1=S	inactive
CN(C)/C(=N/C(=S)Nc1ccccc1)SCc1ccccc1	inactive
COc1ccc2c(c1)-c1nc(=S)n(CCCN(C)C)c3ccc([N+](=O)[O-])c(c13)N2	active
CN(C)CCOc1cccc2c1C(=O)c1ccccc1C2=O	inactive
COc1ccc(C=C2C(C)=NN(c3cccc(Cl)c3)C23C(Cl)C(=O)N3c2nc3ccccc3s2)cc1 (configuration not stated)	inactive
COc1ccc(Cn2c(=O)c(OC)c(C)c3cc4ccccc4cc32)cc1	inactive
COc1ccc(/C=N/N=C(\N)NO)c(O)c1	inactive
